Assignment: determine reported ADG (average daily weight gain) for the given molecules.
- Tested on: yellow broilers
- conditionDetails: 1-day-old yellow broilers, basal ration + 750 ppm, 20 days
One number for each entry, in g/d per broiler.

Completed entries (count: 2):
> print(dat)
                                   molecule  numericreadout
1  O=C(NC(CCC(=O)N1CCCCC1)C(=O)O)c1ccccc1 (stereo not drawn)            13.7
2  CCNC(=O)CCC(NC(=O)c1ccccc1)C(=O)O (stereo not drawn)            14.8

For every record below, what is its ADG (average daily weight gain)?
1. CCCCNC(=O)CCC(NC(=O)c1ccccc1)C(=O)O (stereo not drawn)
2. CCNC(=O)CCC(NC(=O)c1ccc(Cl)cc1)C(=O)O (stereo not drawn)
3. CCNC(=O)CCC(NC(=O)c1ccc(O)cc1)C(=O)O (stereo not drawn)

Solution:
[14.1, 14.5, 14.0]
